The origin of these recorded values is patent US20150018403A1.

- Tested system: human PDHK2 (hPDHK2) (Homo sapiens)
- Construct: made in house; host or cells: Escherichia coli BL21(DE3), pET17b vector
- Assay details: Inhibitory action of PDHK2 activity in vitro (residual PDH activity after kinase reaction)
- Assay type: biochemical
- Assay setup: PDH/hPDHK2 complex, 45 min kinase reaction at room temperature; read-out: hPDHK2 IC50
Readout: IC50 (nM)
API: value field is a number in nM; no unit string.

Examples with answers:
1. Cn1cc(-c2cc(OCC(C)(C)O)cc3c2-c2ccccc2[C@]3(O)C(F)(F)F)cn1 [compound (B), reference compound]
7.4
2. C[C@H](O)COc1cc(-c2cnn(C(C)(C)C(N)=O)c2)c2c(c1)[C@@](O)(C(F)(F)F)c1ccccc1-2 [compound (2)]
4.9

Item C[C@@H](O)COc1cc(-c2cnn(C(C)(C)C(N)=O)c2)c2c(c1)[C@@](O)(C(F)(F)F)c1ccccc1-2 [compound (3)] has what recorded IC50?
4.7

====

- Tested system: hERG (Homo sapiens)
- Construct: host or cells: HEK293
- Sequence (Q12809 whole entry): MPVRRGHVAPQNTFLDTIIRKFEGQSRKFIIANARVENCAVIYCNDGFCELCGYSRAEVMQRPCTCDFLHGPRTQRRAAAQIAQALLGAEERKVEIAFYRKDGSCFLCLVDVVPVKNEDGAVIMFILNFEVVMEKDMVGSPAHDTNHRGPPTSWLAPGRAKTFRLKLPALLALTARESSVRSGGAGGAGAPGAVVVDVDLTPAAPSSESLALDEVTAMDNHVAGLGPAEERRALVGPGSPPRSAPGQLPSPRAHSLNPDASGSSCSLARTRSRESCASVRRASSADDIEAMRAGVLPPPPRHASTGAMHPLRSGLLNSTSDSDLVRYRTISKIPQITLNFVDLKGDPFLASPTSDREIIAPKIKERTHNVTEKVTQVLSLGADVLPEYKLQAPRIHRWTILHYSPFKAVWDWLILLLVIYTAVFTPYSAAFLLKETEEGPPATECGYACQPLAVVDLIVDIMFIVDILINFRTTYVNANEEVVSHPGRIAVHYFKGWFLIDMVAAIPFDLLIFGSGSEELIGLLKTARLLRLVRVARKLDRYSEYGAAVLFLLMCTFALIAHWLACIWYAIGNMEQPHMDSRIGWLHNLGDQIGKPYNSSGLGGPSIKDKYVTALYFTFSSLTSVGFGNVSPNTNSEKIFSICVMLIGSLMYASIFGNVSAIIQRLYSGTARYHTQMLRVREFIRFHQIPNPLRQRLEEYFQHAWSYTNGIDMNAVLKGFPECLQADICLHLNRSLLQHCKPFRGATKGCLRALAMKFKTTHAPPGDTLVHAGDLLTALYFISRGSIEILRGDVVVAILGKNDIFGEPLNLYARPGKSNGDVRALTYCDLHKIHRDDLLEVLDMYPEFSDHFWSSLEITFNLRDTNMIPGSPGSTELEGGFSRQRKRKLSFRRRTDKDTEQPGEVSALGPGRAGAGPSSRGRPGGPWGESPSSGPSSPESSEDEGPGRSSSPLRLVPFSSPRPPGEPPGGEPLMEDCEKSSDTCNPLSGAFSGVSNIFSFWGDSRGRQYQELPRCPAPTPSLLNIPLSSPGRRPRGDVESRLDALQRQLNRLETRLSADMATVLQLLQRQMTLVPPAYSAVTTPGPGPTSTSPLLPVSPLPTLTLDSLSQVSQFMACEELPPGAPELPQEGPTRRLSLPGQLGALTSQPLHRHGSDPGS
- Assay details: hERG whole cell patch clamp test
- Format: cell-based
- Assay setup: human, HEK293 cells transfected with hERG, pH 7.4; concentration 1 μmol/L; read-out: hERG inhibition rate (%)
Readout: inhibition at 1 μmol/L (%)
API: value field is a number in %; no unit string.

Item Cn1cc(-c2cc(OCC(C)(C)O)cc3c2-c2ccccc2[C@]3(O)C(F)(F)F)cn1 [compound (B), reference compound] has what recorded inhibition at 1 μmol/L?
17.4

====

- Assay details: Metabolic stability test in human liver microsome
- Assay type: in vitro ADME
- Assay setup: 10 min, 37° C., 5 μM
- Procedure: Human liver microsome (manufactured by Xenotech, H0620, final concentration (after dilution), 0.2 mg protein/mL) was suspended in 100 mM potassium phosphate buffer (pH 7.4, containing β-nicotinamide adenine dinucleotide phosphate: 1.3 mM, D-glucose-6-phosphate: 3.3 mM, magnesium chloride: 3.3 mM, glucose-6-phosphate dehydrogenase: 0.45 U/mL), and further mixed with a test compound dissolved in MeCN/DMSO (95/5) (final concentration 5 μM). […]
The following molecules are shown together with reported stability in liver microsome (residual ratio %) values.
API: value field is a number in %; no unit string.

Examples with answers:
1) Cn1cc(-c2cc(OCC(C)(C)O)cc3c2-c2ccccc2[C@]3(O)C(F)(F)F)cn1 [compound (B), reference compound]
98.0
2) NC(=O)Cn1cc(-c2cc(OCCC34CC5CC(CC(O)(C5)C3)C4)cc3c2-c2ccccc2[C@]3(O)C(F)(F)F)cn1 [compound (A), reference compound]
34.8
3) C[C@H](O)COc1cc(-c2cnn(C(C)(C)C(N)=O)c2)c2c(c1)[C@@](O)(C(F)(F)F)c1ccccc1-2
98.9

Next up:
Item C[C@@H](O)COc1cc(-c2cnn(C(C)(C)C(N)=O)c2)c2c(c1)[C@@](O)(C(F)(F)F)c1ccccc1-2 has what recorded stability in liver microsome (residual ratio %)?
98.3

====

- Tested system: hERG (Homo sapiens)
- Construct: host or cells: HEK293
- Assay details: hERG whole cell patch clamp test
- Type: cell-based
- Assay setup: human, HEK293 cells transfected with hERG, pH 7.4; concentration 10 μmol/L; read-out: hERG inhibition rate (%)
Readout: inhibition at 10 μmol/L (%)
API: value field is a number in %; no unit string.

Examples with answers:
1. NC(=O)Cn1cc(-c2cc(OCCC34CC5CC(CC(O)(C5)C3)C4)cc3c2-c2ccccc2[C@]3(O)C(F)(F)F)cn1 [compound (A), reference compound]
11.8
2. Cn1cc(-c2cc(OCC(C)(C)O)cc3c2-c2ccccc2[C@]3(O)C(F)(F)F)cn1 [compound (B), reference compound]
72.9

Next up:
Item C[C@H](O)COc1cc(-c2cnn(C(C)(C)C(N)=O)c2)c2c(c1)[C@@](O)(C(F)(F)F)c1ccccc1-2 has what recorded inhibition at 10 μmol/L?
7.5

====

- Tested system: hERG (Homo sapiens)
- Construct: host or cells: HEK293
- Assay details: hERG whole cell patch clamp test
- Assay type: cell-based
- Assay setup: human, HEK293 cells transfected with hERG, pH 7.4; concentration 30 μmol/L; read-out: hERG inhibition rate (%)
Readout: inhibition at 30 μmol/L (%)
API: value field is a number in %; no unit string.

1) CC(C)(O)COc1cc(-c2cnn(CCO)c2)c2c(c1)[C@@](O)(C(F)(F)F)c1ccccc1-2
69

Next up:
Item CC(C)(C(N)=O)n1cc(-c2cc(F)cc3c2-c2ccccc2[C@]3(O)C(F)(F)F)cn1 has what recorded inhibition at 30 μmol/L?
67.5

====

- Tested system: hERG (Homo sapiens)
- Construct: host or cells: HEK293
- Assay details: hERG whole cell patch clamp test
- Type: cell-based
- Assay setup: human, HEK293 cells transfected with hERG, pH 7.4; concentration 100 μmol/L; read-out: hERG inhibition rate (%)
Readout: inhibition at 100 μmol/L (%)
API: value field is a number in %; no unit string.

Checklist item: inhibition at 100 μmol/L tested on hERG (Homo sapiens), entry C[C@H](O)COc1cc(-c2cnn(C(C)(C)C(N)=O)c2)c2c(c1)[C@@](O)(C(F)(F)F)c1ccccc1-2 [compound (2)] , value?
62.9

====

The following molecules are shown together with reported pIC50 values.
- Tested system: hERG current (hERG-transfected HEK293 cells) (Homo sapiens, UniProt Q12809)
- Sequence (Q12809 whole entry): as above
- Assay details: hERG whole cell patch clamp test
- Assay setup: whole cell patch clamp, hERG-transfected HEK293 cells
Scale explanation: pIC50 corresponds to minus log10 of a concentration expressed in moles per litre.

1) C[C@H](O)COc1cc(-c2cnn(C(C)(C)C(N)=O)c2)c2c(c1)[C@@](O)(C(F)(F)F)c1ccccc1-2
4.23
2) Cn1cc(-c2cc(OCC(C)(C)O)cc3c2-c2ccccc2[C@]3(O)C(F)(F)F)cn1 [compound (B), reference compound]
5.44
3) CC(C)(C(N)=O)n1cc(-c2cc(F)cc3c2-c2ccccc2[C@]3(O)C(F)(F)F)cn1
4.85

Item CC(C)(O)COc1cc(-c2cnn(CCO)c2)c2c(c1)[C@@](O)(C(F)(F)F)c1ccccc1-2 has what recorded pIC50?
4.88

====

- Assay details: Metabolic stability test in rat liver microsome
- Assay type: in vitro ADME
- Assay setup: 10 min
Readout: stability in liver microsome (residual ratio %)
API: value field is a number in %; no unit string.

Examples with answers:
1) C[C@@H](O)COc1cc(-c2cnn(C(C)(C)C(N)=O)c2)c2c(c1)[C@@](O)(C(F)(F)F)c1ccccc1-2
99.2
2) NC(=O)Cn1cc(-c2cc(OCCC34CC5CC(CC(O)(C5)C3)C4)cc3c2-c2ccccc2[C@]3(O)C(F)(F)F)cn1 [compound (A), reference compound]
24.8

Item Cn1cc(-c2cc(OCC(C)(C)O)cc3c2-c2ccccc2[C@]3(O)C(F)(F)F)cn1 [compound (B), reference compound] has what recorded stability in liver microsome (residual ratio %)?
101.1

Item C[C@H](O)COc1cc(-c2cnn(C(C)(C)C(N)=O)c2)c2c(c1)[C@@](O)(C(F)(F)F)c1ccccc1-2 has what recorded stability in liver microsome (residual ratio %)?
98.3

====

- Assay details: Metabolic stability test in human liver microsome
- Format: in vitro ADME
- Assay setup: 60 min, 37° C., 5 μM
- Experimental: Human liver microsome (manufactured by Xenotech, H0620, final concentration (after dilution), 0.2 mg protein/mL) was suspended in 100 mM potassium phosphate buffer (pH 7.4, containing β-nicotinamide adenine dinucleotide phosphate: 1.3 mM, D-glucose-6-phosphate: 3.3 mM, magnesium chloride: 3.3 mM, glucose-6-phosphate dehydrogenase: 0.45 U/mL), and further mixed with a test compound dissolved in MeCN/DMSO (95/5) (final concentration 5 μM). […]
The following compounds are shown together with reported stability in liver microsome (residual ratio %) values.
API: value field is a number in %; no unit string.

Item C[C@H](O)COc1cc(-c2cnn(C(C)(C)C(N)=O)c2)c2c(c1)[C@@](O)(C(F)(F)F)c1ccccc1-2 has what recorded stability in liver microsome (residual ratio %)?
97.2

Item Cn1cc(-c2cc(OCC(C)(C)O)cc3c2-c2ccccc2[C@]3(O)C(F)(F)F)cn1 [compound (B), reference compound] has what recorded stability in liver microsome (residual ratio %)?
88.2

Item NC(=O)Cn1cc(-c2cc(OCCC34CC5CC(CC(O)(C5)C3)C4)cc3c2-c2ccccc2[C@]3(O)C(F)(F)F)cn1 [compound (A), reference compound] has what recorded stability in liver microsome (residual ratio %)?
0.0

Item C[C@@H](O)COc1cc(-c2cnn(C(C)(C)C(N)=O)c2)c2c(c1)[C@@](O)(C(F)(F)F)c1ccccc1-2 has what recorded stability in liver microsome (residual ratio %)?
99.7
